measurementKind: melting point

Kindly note the recorded melting point for CN1CCN(c2ccc(-c3cc(-c4c(-c5ccccn5)nc5ccccn45)ccn3)cc2)CC1 , which is 150 °C

Lab book: melting point of Cc1oc2c(Br)cc(C3CCN(Cc4ccccc4)CC3)cc2c1C noted as 86 to 91 °C

melting point for CCC1(CCCCN2CCN(c3ccccn3)CC2)C(=O)Nc2ccccc21 (stereo unspecified) is 131 to 133 °C

Lab note: measured melting point of O=c1[nH]c2ccccc2c2cc(CO)nn12 was 286 to 288 °C

Input COC(=O)C(=O)CC(=O)c1cc(F)c(OC)c(F)c1 . Output melting point: 185 to 190 °C

Consider COc1ccc(NC(=O)N(C)Cc2cccc3c2C(=O)N(C2CCC(=O)NC2=O)C3=O)cc1 (stereo unspecified) . Its measured melting point is 243 to 245 °C

Record summary for O=C(O)c1c(-c2cccc(OCC3CC3)c2)c2ccccc2n1Cc1ccc(F)cc1 : reported melting point = 200 to 202 °C

Note to self: melting point recorded for Cc1nc2cc(S(=O)(=O)n3c(COC(C)(C)C(=O)O)cc4cc(Cl)ccc43)ccc2s1 was 134 to 136 °C

According to the records, this compound CCc1nc2c(=O)[nH]c(=O)n(C)c2nc1CC displays melting point of 218 to 222 °C

Entry N#CC1=C(c2cccs2)Nc2n[nH]cc2C1c1cccc2nonc12 (stereo unspecified) — recorded melting point = 230 °C

The measured melting point associated with CC1CCc2c(F)c(F)cc3c(=O)[nH]c(=O)n1c23 (stereo unspecified) reads 212 to 214 °C
